Measured values drawn from ChEMBL document CHEMBL3228010 for this set.

Species: Bos taurus
PROTOCOL: Displacement of ethidium from calf thymus DNA by fluorimetric method
QUANTITY MEASURED: C50 (µM)
I only need the number, in µM, no unit after it.

Check out these entries, answers already filled in.
• C[n+]1ccc(Nc2ccc(C(=O)Nc3ccc(Nc4cc[n+](C)c5ccc(N)cc45)c(N)c3)cc2)cc1.Cc1ccc(S(=O)(=O)[O-])cc1.Cc1ccc(S(=O)(=O)[O-])cc1 = 1.58
• C/C(=N\NC(=N)N)c1ccc(NC(=O)c2ccc(C(=O)Nc3ccc(C(=O)Nc4ccc[n+](C)c4)cc3)cc2)cc1.Cc1ccc(S(=O)(=O)O)cc1.Cc1ccc(S(=O)(=O)[O-])cc1 = 0.46
• C[n+]1ccc(Nc2ccc(C(=O)Nc3ccc(Nc4cc[n+](C)c5ccccc45)cc3)cc2)cc1.Cc1ccc(S(=O)(=O)[O-])cc1.Cc1ccc(S(=O)(=O)[O-])cc1 = 1.6
• CC[n+]1cccc(NC(=O)c2ccc(NC(=O)c3ccc(C(=O)Nc4ccc5c(ccc[n+]5CC)c4)cc3)cc2)c1.Cc1ccc(S(=O)(=O)[O-])cc1.Cc1ccc(S(=O)(=O)[O-])cc1 = 0.74

// moving on: another record for C50
C[n+]1cccc(NC(=O)c2ccc(NC(=O)c3ccc(C(=O)Nc4ccc(C(=O)Nc5ccc[n+](C)c5)c5ccccc45)cc3)cc2)c1.Cc1ccc(S(=O)(=O)[O-])cc1.Cc1ccc(S(=O)(=O)[O-])cc1 yielded C50 of 2.2

* * *

Test system: L1210
PROTOCOL: Antitumor activity against mouse L1210 cells […] in ip dosed C3H X DBA2 F1 hybrid mouse on day 0 and dosed once daily on days 1 to 5 assessed as increase in life span relative to control
Format: functional
QUANTITY MEASURED: D40 (mg/kg)
I only need the number, in mg/kg, no unit after it.

• C[n+]1ccc(Nc2ccc(NC(=O)c3ccc(Nc4c(-c5ccccc5)c[n+](C)c5ccc(N)cc45)cc3)cc2)cc1.[Br-].[Br-] = 10

C[n+]1ccc(Nc2ccc(S(=O)(=O)Nc3ccc(Nc4c5ccccc5[n+](C)c5cc(N)ccc45)cc3)cc2)cc1.[O-][Cl+3]([O-])([O-])[O-].[O-][Cl+3]([O-])([O-])[O-] yielded D40 of 5

CCC[n+]1cccc2cc(NC(=O)COc3ccc(C(=O)Nc4ccc5c(ccc[n+]5CCC)c4)cc3)ccc21.Cc1ccc(S(=O)(=O)[O-])cc1.Cc1ccc(S(=O)(=O)[O-])cc1 yielded D40 of 6.3

* * *

PROTOCOL: Displacement of ethidium from poly[d(G-C)]-poly[d(G-C)] DNA (unknown origin) by fluorimetric method
C50 values, listed per item
I only need the number, in µM, no unit after it.

Check out these entries, answers already filled in.
- C[n+]1ccc(Nc2ccc(NC(=O)c3ccc(Nc4cc[n+](C)c5ccc(N)cc45)cc3)cc2N)cc1.[I-].[I-]: 1.3
- C[n+]1cccc(NC(=O)c2ccc(NC(=O)c3ccc(C(=O)Nc4ccc(Nc5cc[n+](C)c6ccc(N)cc56)cc4)cc3)cc2)c1.Cc1ccc(S(=O)(=O)[O-])cc1.Cc1ccc(S(=O)(=O)[O-])cc1: 0.34
- C[n+]1cc(-c2ccc(NC(=O)c3ccc(Nc4cc[n+](C)c5ccc(N)cc45)cc3N)cc2)c(N)nc1N.Cc1ccc(S(=O)(=O)[O-])cc1.Cc1ccc(S(=O)(=O)[O-])cc1: 1.08
- C[n+]1ccc(Nc2ccc(NC(=O)c3ccc(Nc4cc[n+](C)c5ccc(N)cc45)cc3N)cc2)cc1.[I-].[I-]: 1.1
- COc1cc(N)cc2c(Nc3ccc(NC(=O)c4ccc(Nc5cc[n+](C)cc5)cc4)cc3)cc[n+](C)c12.Cc1ccc(S(=O)(=O)[O-])cc1.Cc1ccc(S(=O)(=O)[O-])cc1: 0.61
- C[n+]1cccc2ccc(NC(=O)c3ccc(-c4ccc(-c5ccc(-c6ccc(C(=O)Nc7ccc8ccc[n+](C)c8c7)cc6)cc5)cc4)cc3)cc21.Cc1ccc(S(=O)(=O)[O-])cc1.Cc1ccc(S(=O)(=O)[O-])cc1: 0.28
- C[n+]1cc(-c2ccc(NC(=O)/C=C/c3ccc(C(=O)Nc4ccc(-c5c[n+](C)c(N)nc5N)cc4)cc3)cc2)c(N)nc1N.Cc1ccc(S(=O)(=O)[O-])cc1.Cc1ccc(S(=O)(=O)[O-])cc1: 0.57
- C[n+]1ccc(Nc2ccc(C(=O)Nc3ccc(Nc4cc[n+](C)c5cc(N)ccc45)cc3)cc2)cc1.Cc1ccc(S(=O)(=O)[O-])cc1.Cc1ccc(S(=O)(=O)[O-])cc1: 1.04
- C[n+]1cccc(NC(=O)c2ccc(NC(=O)c3ccc(C(=O)Nc4ccc(C(=O)Nc5ccc[n+](C)c5)c(N)c4)cc3N)cc2)c1.Cc1ccc(S(=O)(=O)[O-])cc1.Cc1ccc(S(=O)(=O)[O-])cc1: 0.54
- C[n+]1ccc(Nc2ccc(NC(=O)c3ccc(Nc4cc[n+](C)c5cc([N+](=O)[O-])ccc45)cc3)cc2)cc1.Cc1ccc(S(=O)(=O)[O-])cc1.Cc1ccc(S(=O)(=O)[O-])cc1: 1.3

C[n+]1ccc(Nc2ccc(NC(=O)c3ccc(C(=O)Nc4ccc(Nc5cc[n+](C)cc5)cc4)cc3)cc2)cc1.Cc1ccc(S(=O)(=O)[O-])cc1.Cc1ccc(S(=O)(=O)[O-])cc1 yielded C50 of 1.8

C[n+]1cccc(NC(=O)c2ccc(C(=O)Nc3ccc[n+](C)c3)cc2)c1.Cc1ccc(S(=O)(=O)[O-])cc1.Cc1ccc(S(=O)(=O)[O-])cc1 yielded C50 of 80

C[n+]1ccc(Nc2ccc(NC(=O)/C=C/c3ccc(/C=C/C(=O)Nc4ccc(Nc5cc[n+](C)cc5)cc4)cc3)cc2)cc1.Cc1ccc(S(=O)(=O)[O-])cc1.Cc1ccc(S(=O)(=O)[O-])cc1 yielded C50 of 0.38

Br.C/C(=N\NC(=N)N)c1ccc(NC(=O)c2ccc(Nc3cc[n+](C)c4ccccc34)cc2)cc1.[Br-] yielded C50 of 1.04
